# condition.label: in methyl acetate, 313.15 K
measure: solubility (mole fraction)
Answer with a number only.

Challenge: Give the value of solubility (mole fraction) reported for the following: CC[C@H](C)[C@H](N)C(=O)O
Response given: 0.00387

* * *

# condition.label: in methanol, 288.15 K
measure: solubility (mole fraction)

Challenge: Give the value of solubility (mole fraction) reported for the following: CC[C@H](C)[C@H](N)C(=O)O
Response given: 0.000814

* * *

# condition.label: in acetonitrile, 288.15 K
measure: solubility (mole fraction)
Answer with a number only.

Challenge: Give the value of solubility (mole fraction) reported for the following: CC[C@H](C)[C@H](N)C(=O)O
Response given: 0.000185

* * *

# condition.label: in n-propanol, 283.15 K
measure: solubility (mole fraction)

Challenge: Give the value of solubility (mole fraction) reported for the following: CC[C@H](C)[C@H](N)C(=O)O
Response given: 0.000187

* * *

# condition.label: in 1,4-dioxane, 293.15 K
measure: solubility (mole fraction)
Answer with a number only.

Challenge: Give the value of solubility (mole fraction) reported for the following: CC[C@H](C)[C@H](N)C(=O)O
Response given: 0.00132

* * *

# condition.label: in n-butanol, 283.15 K
measure: solubility (mole fraction)
Answer with a number only.

Challenge: Give the value of solubility (mole fraction) reported for the following: CC[C@H](C)[C@H](N)C(=O)O
Response given: 9.12e-05

* * *

# condition.label: in isopropanol, 303.15 K
measure: solubility (mole fraction)
Answer with a number only.

Challenge: Give the value of solubility (mole fraction) reported for the following: CC[C@H](C)[C@H](N)C(=O)O
Response given: 0.00285

* * *

# condition.label: in n-butanol, 308.15 K
measure: solubility (mole fraction)

Challenge: Give the value of solubility (mole fraction) reported for the following: CC[C@H](C)[C@H](N)C(=O)O
Response given: 0.000468

* * *

# condition.label: in acetone, 288.15 K
measure: solubility (mole fraction)
Answer with a number only.

Challenge: Give the value of solubility (mole fraction) reported for the following: CC[C@H](C)[C@H](N)C(=O)O
Response given: 1.47e-05

* * *

# condition.label: in n-butanol, 313.15 K
measure: solubility (mole fraction)
Answer with a number only.

Challenge: Give the value of solubility (mole fraction) reported for the following: CC[C@H](C)[C@H](N)C(=O)O
Response given: 0.000585

* * *

# condition.label: in isopropanol, 323.15 K
measure: solubility (mole fraction)
Answer with a number only.

Challenge: Give the value of solubility (mole fraction) reported for the following: CC[C@H](C)[C@H](N)C(=O)O
Response given: 0.00494

Recorded values, source BigSolDB 2.1.
